Target: HLA-A*24 (human)
Test: UV-exchange ELISA, exchange yield grade
TEST_READOUT: peptide exchange yield

BINDER	TEST_READOUT	ASSAY_RESULT
IYNPNLLTASKF [… (SEQ ID NO: 287)]	peptide exchange yield	50 to 75%
KYGNFIDKL [… (SEQ ID NO: 350)]	peptide exchange yield	50 to 75%
VFASLPGFLF [… (SEQ ID NO: 144)]	peptide exchange yield	> 75%
VYPDTVALTF [… (SEQ ID NO: 288)]	peptide exchange yield	20 to 49%
AYIPTPIYF [… (SEQ ID NO: 134)]	peptide exchange yield	50 to 75%
TYTNTLERL [… (SEQ ID NO: 225)]	peptide exchange yield	50 to 75%
TYIPVGLGRLL [… (SEQ ID NO: 179)]	peptide exchange yield	50 to 75%
RYLNKSFVL [… (SEQ ID NO: 115)]	peptide exchange yield	50 to 75%
